measurement.description: Oral bioavailability in rat at 2 mg/kg
Assay type: ADME, organism-based
condition.notes: in vivo
observed.property: bioavailability (%)
Write the answer as a number in %, unit excluded.

# bioavailability (compound: CCS(=O)(=O)CCN(C(=O)Cc1ccc(F)c(C(F)(F)F)c1)[C@H](C)c1nc2ncccc2c(=O)n1-c1ccc(OCC(F)(F)F)cc1 ) is 26

---

measured.on: C-X-C chemokine receptor type 3 (Homo sapiens)
Sequence (P49682 whole entry): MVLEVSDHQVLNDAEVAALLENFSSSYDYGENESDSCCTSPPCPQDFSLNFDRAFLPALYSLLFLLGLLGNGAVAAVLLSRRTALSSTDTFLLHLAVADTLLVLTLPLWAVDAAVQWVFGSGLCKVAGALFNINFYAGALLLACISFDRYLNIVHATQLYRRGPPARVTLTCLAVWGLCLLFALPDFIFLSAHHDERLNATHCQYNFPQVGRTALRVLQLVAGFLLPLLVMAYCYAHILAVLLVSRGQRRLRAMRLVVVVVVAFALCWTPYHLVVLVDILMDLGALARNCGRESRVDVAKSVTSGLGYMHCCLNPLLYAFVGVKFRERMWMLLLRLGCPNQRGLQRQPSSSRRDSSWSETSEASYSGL
measurement.description: Displacement of [125I]-1P10 from human CXCR3 expressed in PBMC after 2 hrs in RPMI buffer by scintillation counting
Provide the reported log10 of IC50 of each item.
Use the decimal logarithm of IC50 (nM).

GET /values?item= CCOc1ccc(-n2c([C@@H](C)N(C(=O)Cc3ccc(F)c(C(F)(F)F)c3)C3CCN(C(C)C)CC3)nc3ncccc3c2=O)cc1 &system= C-X-C chemokine receptor type 3 (Homo sapiens) returns log10 of IC50: 0.00

GET /values?item= CCOc1ccc(-n2c([C@@H](C)N(Cc3cccnc3)C(=O)Cc3cc(C(F)(F)F)cc(C(F)(F)F)c3)nc3ccccc3c2=O)cc1 &system= C-X-C chemokine receptor type 3 (Homo sapiens) returns log10 of IC50: 0.85

GET /values?item= CCOc1ccc(-n2c([C@@H](C)N(Cc3cccnc3)C(=O)CCc3ccc(C(F)(F)F)cc3)nc3ccccc3c2=O)cc1 &system= C-X-C chemokine receptor type 3 (Homo sapiens) returns log10 of IC50: 3.32

GET /values?item= CCOc1ccc(-n2c([C@@H](C)N(Cc3cccnc3)C(=O)Cc3nc4ccc(C(F)(F)F)cc4[nH]3)nc3ccccc3c2=O)cc1 &system= C-X-C chemokine receptor type 3 (Homo sapiens) returns log10 of IC50: 2.32

GET /values?item= CCOc1ccc(-n2c([C@@H](C)N(Cc3cc(C)no3)C(=O)Cc3ccc(F)c(C(F)(F)F)c3)nc3ncccc3c2=O)cc1 &system= C-X-C chemokine receptor type 3 (Homo sapiens) returns log10 of IC50: 0.30

GET /values?item= CCS(=O)(=O)CCN(C(=O)Cc1ccc(F)c(C(F)(F)F)c1)[C@H](C)c1nc2ncccc2c(=O)n1-c1ccc(OCC(F)(F)F)cc1 &system= C-X-C chemokine receptor type 3 (Homo sapiens) returns log10 of IC50: 0.00

GET /values?item= CCOc1ccc(-n2c([C@@H](C)N(CC3CCN(C)CC3)C(=O)Cc3ccc(F)c(C(F)(F)F)c3)nc3ncccc3c2=O)cc1 &system= C-X-C chemokine receptor type 3 (Homo sapiens) returns log10 of IC50: 0.30
